Target: Dimer of Gag-Pol polyprotein [489-587] (Human immunodeficiency virus 1, UniProt P12497)
Construct: 489-587
Experiment: Protease Inhibition Assay
Method: The inhibitory activities of the compounds toward HIV-1 PR were determined by sodium dodecyl sulfate-polyacrylamide gel electrophoresis (SDS-PAGE) assay. The IC50 values of active compounds were determined using the partially purified protease and the synthetic substrate Ac-Ser-Gln-AsnTyr-Pro-Ile-Val-NH2.
Measured pIC50, listed per entry for reference.
Please keep in mind that pIC50 is minus log10 of the molar concentration; only the number is needed.

CC(C)(C)NC(=O)[C@@H]1C[C@H](Cl)CN1C(=O)[C@@H](O)[C@H](Cc1ccccc1)NC(=O)O[C@H]1CCOC1 :: 8.29
CC(C)(C)NC(=O)[C@@H]1C[C@H](Cl)CN1C(=O)[C@@H](O)[C@H](Cc1ccccc1)NC(=O)c1ccc(O)cc1 :: 7.48
Cc1c(N)cccc1C(=O)N[C@@H](Cc1ccccc1)[C@H](O)C(=O)N1C[C@@H](Cl)C[C@H]1C(=O)NC(C)(C)C :: 8.27
CC(C)(C)NC(=O)[C@@H]1C[C@H](Cl)CN1C(=O)[C@@H](O)[C@H](Cc1ccccc1)NC(=O)OC1CCCC1 :: 7.72

// compound Cc1ccccc1C(=O)N[C@@H](Cc1ccccc1)[C@H](O)C(=O)N1C[C@@H](Cl)C[C@H]1C(=O)NC(C)(C)C , assay Dimer of Gag-Pol polyprotein [489-587] (Human immunodeficiency virus 1, UniProt P12497), pIC50 value: 8.29

// compound CC(C)(C)NC(=O)[C@@H]1C[C@H](Cl)CN1C(=O)[C@@H](O)[C@H](Cc1ccccc1)NC(=O)c1ccccc1N , assay Dimer of Gag-Pol polyprotein [489-587] (Human immunodeficiency virus 1, UniProt P12497), pIC50 value: 7.41
